- measurement.notes: Pharmacokinetic studies in mice (IV and PO)
- Type: in vivo
- assay.setup: mouse, plasma, IV 2 mg/kg
observed.property: AUC(0-inf) (ng·h/mL)

INSERT INTO results (molecule, numeric_value) VALUES
  ('CO[C@H]1C2=CC(C)(C2)[C@H](C)CS(=O)(=O)NC(=O)c2ccc3c(c2)N(C[C@@H]2CC[C@H]21)C[C@@]1(CCCc2cc(Cl)ccc21)CO3 (mixture of isomers) [13 (mixture)]', 5200),
  ('CO[C@H]1/C=C/C[C@H](C)[C@@H](C)S(=O)(=O)NC(=O)c2ccc3c(c2)N(C[C@@H]2CC[C@H]21)C[C@@]1(CCCc2cc(Cl)ccc21)CO3 [AMG-176, reference compound]', 7450),
  ('CO[C@H]1C2=C[C@@H](C2)[C@H](C)[C@@H](C)S(=O)(=O)NC(=O)c2ccc3c(c2)N(C[C@@H]2CC[C@H]21)C[C@@]1(CCCc2cc(Cl)ccc21)CO3 (single isomer, unassigned) [Cpd. No. 15 (isomer 1)]', 7870),
  ('CO[C@H]1C2=CC(C2)[C@H](C)[C@@H](C)S(=O)(=O)NC(=O)c2ccc3c(c2)N(C[C@@H]2CC[C@H]21)C[C@@]1(CCCc2cc(Cl)cc(F)c21)CO3 (single isomer, unassigned) [20 (isomer 1)]', 7500);

###

- measurement.notes: Pharmacokinetic studies in mice (IV and PO)
- Format: in vivo
- assay.setup: mouse, plasma, IV 2 mg/kg
clearance values for the compounds below.
observed.property: clearance (mL/min/kg)

INSERT INTO assay_data (compound, numeric_value) VALUES
  ('CO[C@H]1C2=CC(C2)[C@H](C)[C@@H](C)S(=O)(=O)NC(=O)c2ccc3c(c2)N(C[C@@H]2CC[C@H]21)C[C@@]1(CCCc2cc(Cl)c(F)cc21)CO3 (single isomer, unassigned) [Cpd. No. 21 (isomer 1)]', 3.8),
  ('CO[C@H]1C2=CC(C2)[C@H](C)CS(=O)(=O)NC(=O)c2ccc3c(c2)N(C[C@@H]2CC[C@H]21)C[C@@]1(CCCc2cc(Cl)ccc21)CO3 (single isomer, unassigned) [Cpd. No. 14 (Isomer 1)]', 7.07),
  ('CO[C@H]1C2=CC(C)(C2)[C@H](C)CS(=O)(=O)NC(=O)c2ccc3c(c2)N(C[C@@H]2CC[C@H]21)C[C@@]1(CCCc2cc(Cl)ccc21)CO3 (mixture of isomers) [13 (mixture)]', 6.4),
  ('CO[C@H]1C2=CC(C2)[C@H](C)[C@@H](C)S(=O)(=O)NC(=O)c2ccc3c(c2)N(C[C@@H]2CC[C@H]21)C[C@@]1(CCCc2cc(Cl)cc(F)c21)CO3 (single isomer, unassigned) [20 (isomer 1)]', 4.45),
  ('COCCO[C@H]1C2=CC(C2)[C@H](C)[C@@H](C)S(=O)(=O)NC(=O)c2ccc3c(c2)N(C[C@@H]2CC[C@H]21)C[C@@]1(CCCc2cc(Cl)ccc21)CO3 (mixture of isomers) [16 (mixture)]', 13.6);

###

- Tested on: NCI-H929 cells
- measurement.notes: Cell viability assay (NCI-H929 cells), CCK-8
- Type: cell-based
- assay.setup: Homo sapiens, NCI-H929, 24 h, 5% FBS
Note to self: use label 1 only for IC50 readings below 50 nM; a reading exactly at 50 nM still gets label 0.

INSERT INTO assay_data (compound, label) VALUES
  ('CC(=O)N(C)CCO[C@H]1C2=C[C@@H](C2)[C@H](C)[C@@H](C)S(=O)(=O)NC(=O)c2ccc3c(c2)N(C[C@@H]2CC[C@H]21)C[C@@]1(CCCc2c1ccc(Cl)c2F)CO3', 'label 0'),
  ('CO[C@H]1C2=C[C@H](C2)[C@H](C)[C@@H](C)S(=O)(=O)NC(=O)c2ccc3c(c2)N(C[C@@H]2CC[C@H]21)C[C@@]1(CCCc2cc(Cl)ccc21)CO3 (single isomer, unassigned) [Cpd. No. 15 (isomer 2)]', 'label 0'),
  ('CO[C@H]1C2=C[C@H](C2)[C@H](C)CS(=O)(=O)NC(=O)c2ccc3c(c2)N(C[C@@H]2CC[C@H]21)C[C@@]1(CCCc2c1ccc(Cl)c2F)CS3 (single isomer, unassigned) [24 (isomer 2)]', 'label 0'),
  ('CO[C@@]1(CN2CCN(C)CC2)C2=C[C@@H](C2)[C@H](C)[C@@H](C)S(=O)(=O)NC(=O)c2ccc3c(c2)N(C[C@@H]2CC[C@H]21)C[C@@]1(CCCc2c1ccc(Cl)c2F)CO3', 'label 1'),
  ('CC(C)[C@@H]1C2=C[C@@H](C2)[C@H](C)[C@@H](C)S(=O)(=O)NC(=O)c2ccc3c(c2)N(C[C@@H]2CC[C@H]21)C[C@@]1(CCCc2c1ccc(Cl)c2F)CO3', 'label 0'),
  ('CO[C@H]1C2=C[C@@H](C2)[C@H](C)[C@@H](C)S(=O)(=O)NC(=O)c2ccc3c(c2)N(C[C@@H]2CC[C@H]21)C[C@@]1(CCCc2c1ccc(Cl)c2F)CS3 (single isomer, unassigned) [22 (isomer 1)]', 'label 0'),
  ('CO[C@H]1C2=C[C@@H](C2)[C@H](C)CS(=O)(=O)NC(=O)c2ccc3c(c2)N(C[C@@H]2CC[C@H]21)C[C@@]1(CCCc2c1ccc(Cl)c2F)CS3 (single isomer, unassigned) [24 (isomer 1)]', 'label 0'),
  ('CO[C@H]1C2=C[C@H](C2)[C@H](C)[C@@H](C)S(=O)(=O)NC(=O)c2ccc3c(c2)N(C[C@@H]2CC[C@H]21)C[C@@]1(CCCc2c1ccc(Cl)c2F)CO3 (single isomer, unassigned) [Cpd. No. 17 (isomer 2)]', 'label 0'),
  ('C[C@@H]1[C@@H](C)S(=O)(=O)NC(=O)c2ccc3c(c2)N(C[C@@H]2CC[C@H]2[C@@H](OCCN2CCN(C)CC2)C2=C[C@H]1C2)C[C@@]1(CCCc2c1ccc(Cl)c2F)CO3', 'label 1'),
  ('C[C@@H]1[C@@H](C)S(=O)(=O)NC(=O)c2ccc3c(c2)N(C[C@@H]2CC[C@H]2[C@@H](OCCN2CC4(CN(C)C4)C2)C2=C[C@H]1C2)C[C@@]1(CCCc2c1ccc(Cl)c2F)CO3', 'label 0'),
  ('CCO[C@@]1(CN2CCN3CCOC[C@H]3C2)C2=C[C@@H](C2)[C@H](C)[C@@H](C)S(=O)(=O)NC(=O)c2ccc3c(c2)N(C[C@@H]2CC[C@H]21)C[C@@]1(CCCc2c1ccc(Cl)c2F)CO3', 'label 1'),
  ('CO[C@H]1C2=CC(C2)[C@H](C)[C@@H](C)S(=O)(=O)NC(=O)c2ccc3c(c2)N(C[C@@H]2CC[C@H]21)C[C@@]1(CCCc2cc(Cl)c(F)cc21)CO3 (single isomer, unassigned) [Cpd. No. 21 (isomer 1)]', 'label 0'),
  ('CO[C@H]1C2=C[C@@H](C2)[C@H](C)[C@@H](C)S(=O)(=O)NC(=O)c2ccc3c(c2)N(C[C@@H]2CC[C@H]21)C[C@@]1(CCCc2cc(Cl)ccc21)CO3 (single isomer, unassigned) [Cpd. No. 15 (isomer 1)]', 'label 1'),
  ('CO[C@H]1C2=CC(C2)[C@H](C)[C@@H](C)S(=O)(=O)NC(=O)c2ccc3c(c2)N(C[C@@H]2CC[C@H]21)C[C@@]1(CCCc2cc(Cl)cc(F)c21)CO3 (single isomer, unassigned) [20 (isomer 1)]', 'label 0'),
  ('CO[C@@]1(CN2C[C@@H](C)N[C@@H](C)C2)C2=C[C@@H](C2)[C@H](C)[C@@H](C)S(=O)(=O)NC(=O)c2ccc3c(c2)N(C[C@@H]2CC[C@H]21)C[C@@]1(CCCc2c1ccc(Cl)c2F)CO3', 'label 1');
